Recorded values, source patent US20200048332A1.

Assayed target: T1, activated C1s (human, UniProt P09871 16-688)
T1 sequence: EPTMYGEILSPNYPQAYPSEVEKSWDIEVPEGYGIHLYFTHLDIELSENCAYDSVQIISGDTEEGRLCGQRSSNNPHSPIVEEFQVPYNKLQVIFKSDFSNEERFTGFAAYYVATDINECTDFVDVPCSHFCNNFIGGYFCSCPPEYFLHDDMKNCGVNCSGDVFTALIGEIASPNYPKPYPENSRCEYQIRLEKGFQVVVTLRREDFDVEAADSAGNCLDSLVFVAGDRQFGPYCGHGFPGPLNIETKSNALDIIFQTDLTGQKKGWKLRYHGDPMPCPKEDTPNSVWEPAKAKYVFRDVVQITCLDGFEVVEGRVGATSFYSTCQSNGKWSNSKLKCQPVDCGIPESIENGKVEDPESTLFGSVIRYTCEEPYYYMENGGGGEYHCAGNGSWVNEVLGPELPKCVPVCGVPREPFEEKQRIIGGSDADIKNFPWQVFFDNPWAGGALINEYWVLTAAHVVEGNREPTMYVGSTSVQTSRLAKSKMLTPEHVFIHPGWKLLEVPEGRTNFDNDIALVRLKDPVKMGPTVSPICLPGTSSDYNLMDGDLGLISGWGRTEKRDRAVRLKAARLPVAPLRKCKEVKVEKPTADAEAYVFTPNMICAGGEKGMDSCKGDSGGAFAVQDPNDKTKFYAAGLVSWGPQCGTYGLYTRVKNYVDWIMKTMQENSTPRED
Protocol text: cell-based or functional assay
Value type: IC50 of classical complement pathway inhibition ('Classical Pathway Inhibition', IC50 (M))
Record the value in M, omitting the unit from your answer.

Fill in the blank: the reported IC50 of classical complement pathway inhibition ('Classical Pathway Inhibition', IC50 (M)) of humanized VH3/Vk1 (antibody, V domains shown) VH: QVQLVQSGAEVKKPGASVKLSCTASGFNIKDDYIHWVKQAPGQGLEWIGRIDPADGHTKYAPKFQVKVTITADTSTSTAYLELSSLRSEDTAVYYCARYGYGREVFDYWGQGTTVTVSS VL: DIVLTQSPDSLAVSLGERATISCKASQSVDYDGDSYMNWYQQKTGQPPKILIYDASNLESGIPARFSGSGSGTDFTLTISSLEEEDFAIYYCQQSNEDPWTFGGGTKVEIK is ____.
1.27e-09
